# credit: patent US20050124539A1

Biological target: T1, TGR26, rat-derived G protein-coupled receptor protein (rat, UniProt Q56UD9 1-329)
T1 construct: Expressed in CHO dhfr- cells from pAK-rGPR7; also called rat TGR26; TGR26 receptor
T1 sequence: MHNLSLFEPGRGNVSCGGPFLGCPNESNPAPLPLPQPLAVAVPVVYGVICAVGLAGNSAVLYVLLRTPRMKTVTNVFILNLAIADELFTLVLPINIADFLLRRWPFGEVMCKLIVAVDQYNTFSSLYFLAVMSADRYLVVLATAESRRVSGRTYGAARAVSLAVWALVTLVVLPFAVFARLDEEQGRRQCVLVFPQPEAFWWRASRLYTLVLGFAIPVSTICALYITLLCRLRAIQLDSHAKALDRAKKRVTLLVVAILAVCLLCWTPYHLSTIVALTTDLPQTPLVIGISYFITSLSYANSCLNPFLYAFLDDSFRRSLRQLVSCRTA
Assay: competition with [125I-Tyr10]-hGPR8L(1-23), membrane fraction of TGR26 expressing CHO cells, 3 µg/ml
measured.property: IC50 (nM)
Answers are plain numbers, in nM.

Using the record for WYKHVASPRYHTVGRAAGLLMGL (also called hGPR8L(1-23); Human GPR8 ligand (1-23)) [human homologue of GPR8 ligand peptide consisting of 23 residues] , report its IC50.
0.12
